measuredMetric: melting point

INSERT INTO results (compound, valueobserved) VALUES
  ('CN1CCN(Cc2ccc(C#N)cc2Nc2nccc(-c3cc(C#N)c4c(c3)[C@@](C)(CO)CN4)n2)CC1 [Compound 226]', '298 °C'),
  ('COc1cc(C(=O)N2CC3(CCNCC3)C2)c(Cl)cc1Nc1nccc(-c2cc(C#N)c3c(c2)C(C)(C)CN3)n1 [Compound 114]', '206 °C'),
  ('CCCCc1ccc(C#N)cc1Nc1nccc(-c2cc(C#N)c3c(c2)[C@@](C)(CO)CN3)n1 [Compound 15]', '110 °C'),
  ('COc1ccc(C#N)cc1Nc1nccc(-c2cc(C#N)c3c(c2)C(C)(CO)CN3)n1 (stereo not shown) [Compound 31]', '295 °C'),
  ('COCCOc1cc(P(C)(C)=O)ccc1Nc1nccc(-c2cc(C#N)c3c(c2)[C@@](C)(CO)CN3)n1 [Compound 67]', '188 °C'),
  ('COCCOc1ccc(Cl)cc1Nc1nccc(-c2cc(C#N)c3c(c2)C(C)(CO)CN3)n1 (stereo not shown) [Compound 34]', '184 °C'),
  ('COC(=O)c1cc(OC)c(Nc2nccc(-c3cc(C#N)c4c(c3)C(C)(C)CN4)n2)cc1Cl [Compound 106]', '208 °C');

---

# System: JJN-3 (NIK translocated) multiple myeloma cells
# assay: Antiproliferative activity on JJN-3 multiple myeloma cells (CellTiter-Glo, 96 hr), Biological Assay C
# Assay type: cell-based, human
# condition: Homo sapiens, JJN-3, 96 h, JJN-3 (NIK translocated) cells, averaged values, read-out: JJN-3 Proliferation inhibition (IC50 (nM))
# Experimental: Determination of Antiproliferative Activity on JJN-3 (NIK Translocated) and KMS12-BM (NIK WT) Multiple Myeloma Cells All compounds tested were dissolved in DMSO and further dilutions were made in culture medium. Final DMSO concentration was 0.3% (v/v) in cell proliferation assays. Viability was assessed using CellTiter-Glo cell viability assay kit (Promega). […] Luminescence was measured on a HTS Topcount (Perkin Elmer). […]
Each entry below carries its recorded IC50.
measuredMetric: IC50 (nM)

INSERT INTO measurements (compound, targetorsystem, valueobserved) VALUES
  ('Cc1c(Nc2nccc(-c3cc(C#N)c4c(c3)C(C)(CO)CN4)n2)cc(Cl)cc1C(=O)N(C)C (stereo not shown)', 'JJN-3 (NIK translocated) multiple myeloma cells', 33),
  ('CC1(COc2ccc(C#N)cc2Nc2nccc(-c3cc(C#N)c4c(c3)[C@@](C)(CO)CN4)n2)COC1', 'JJN-3 (NIK translocated) multiple myeloma cells', 170),
  ('CN1CCC(Oc2ccc(C#N)cc2Nc2nccc(-c3cc(C#N)c4c(c3)[C@@](C)(CO)CN4)n2)C(F)C1 (stereo partly shown)', 'JJN-3 (NIK translocated) multiple myeloma cells', 46),
  ('C[C@]1(CO)CNc2c(C#N)cc(-c3ccnc(Nc4cc(C#N)ccc4CN4CC(F)(F)C4)n3)cc21', 'JJN-3 (NIK translocated) multiple myeloma cells', 96);

---

# targetOrSystem: recombinant human NF-kappaB-inducing kinase (NIK/MAP3K14) (Homo sapiens)
# Sequence (Q99558 whole entry): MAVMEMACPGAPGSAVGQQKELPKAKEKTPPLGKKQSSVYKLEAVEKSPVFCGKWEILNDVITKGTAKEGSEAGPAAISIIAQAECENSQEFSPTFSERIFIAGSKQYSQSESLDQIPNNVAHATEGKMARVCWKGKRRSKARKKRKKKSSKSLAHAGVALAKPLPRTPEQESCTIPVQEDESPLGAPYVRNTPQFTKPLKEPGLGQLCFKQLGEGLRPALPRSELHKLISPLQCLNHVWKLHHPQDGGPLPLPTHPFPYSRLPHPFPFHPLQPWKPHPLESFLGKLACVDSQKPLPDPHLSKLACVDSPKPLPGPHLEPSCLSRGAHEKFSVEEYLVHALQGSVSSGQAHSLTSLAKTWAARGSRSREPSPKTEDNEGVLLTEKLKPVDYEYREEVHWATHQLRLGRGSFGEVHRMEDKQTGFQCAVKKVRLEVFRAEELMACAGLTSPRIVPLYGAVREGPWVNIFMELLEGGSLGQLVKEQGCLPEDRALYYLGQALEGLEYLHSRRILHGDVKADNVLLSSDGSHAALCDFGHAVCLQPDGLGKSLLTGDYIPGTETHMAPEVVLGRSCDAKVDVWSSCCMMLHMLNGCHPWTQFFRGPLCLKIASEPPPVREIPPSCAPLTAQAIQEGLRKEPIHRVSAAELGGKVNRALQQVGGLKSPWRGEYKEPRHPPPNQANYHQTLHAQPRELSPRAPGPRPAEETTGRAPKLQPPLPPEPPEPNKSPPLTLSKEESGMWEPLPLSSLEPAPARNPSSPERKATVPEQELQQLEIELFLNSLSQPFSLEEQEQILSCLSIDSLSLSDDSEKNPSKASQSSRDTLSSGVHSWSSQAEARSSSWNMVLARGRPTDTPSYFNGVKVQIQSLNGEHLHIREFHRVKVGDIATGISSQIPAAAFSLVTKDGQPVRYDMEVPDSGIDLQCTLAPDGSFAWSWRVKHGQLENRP
# assay: Inhibition of auto-phosphorylation of recombinant human NIK/MAP3K14 activity (AlphaScreen), Biological Assay A
# Format: biochemical
# condition: averaged values over all measurements on all batches
log10 IC50 reference
measuredMetric: log10 IC50 (log10 of the value in nM)

INSERT INTO assay_data (compound, targetorsystem, valueobserved) VALUES
  ('CNCCOc1ccc(Cl)cc1Nc1nccc(-c2cc(C#N)c3c(c2)C(C)(C)CN3)n1', 'recombinant human NF-kappaB-inducing kinase (NIK/MAP3K14) (Homo sapiens)', 1.73),
  ('CC(=O)NC[C@@]1(C)CNc2c(C#N)cc(-c3ccnc(Nc4cc(C#N)ccc4C)n3)cc21', 'recombinant human NF-kappaB-inducing kinase (NIK/MAP3K14) (Homo sapiens)', 1.21),
  ('Cc1ccc(C2CN(C)C2)cc1Nc1nccc(-c2cc(C#N)c3c(c2)[C@@](C)(CO)CN3)n1', 'recombinant human NF-kappaB-inducing kinase (NIK/MAP3K14) (Homo sapiens)', 1.52),
  ('Cc1ccc(-c2cncn2C)cc1Nc1nccc(-c2cc(C#N)c3c(c2)[C@@](C)(CO)CN3)n1', 'recombinant human NF-kappaB-inducing kinase (NIK/MAP3K14) (Homo sapiens)', 1.49),
  ('COc1cc(N2CCOCC2)c(Cl)cc1Nc1nccc(-c2cc(C#N)c3c(c2)C(C)(C)CN3)n1', 'recombinant human NF-kappaB-inducing kinase (NIK/MAP3K14) (Homo sapiens)', 1.68),
  ('CC(C)Oc1ccc(CO)cc1Nc1nccc(-c2cc(C#N)c3c(c2)[C@@](C)(CO)CN3)n1', 'recombinant human NF-kappaB-inducing kinase (NIK/MAP3K14) (Homo sapiens)', 0.15),
  ('COCCOc1cc(F)ccc1Nc1nccc(-c2cc(C#N)c3c(c2)[C@@](C)(CO)CN3)n1', 'recombinant human NF-kappaB-inducing kinase (NIK/MAP3K14) (Homo sapiens)', 0.69),
  ('CCC(=O)NCC#Cc1cc(C)c(Nc2nccc(-c3cc(C#N)c4c(c3)[C@@](C)(CO)CN4)n2)cc1C#N', 'recombinant human NF-kappaB-inducing kinase (NIK/MAP3K14) (Homo sapiens)', 0.58),
  ('Cc1ccc(C#N)cc1Nc1nccc(-c2cc(C#N)c3c(c2)[C@@](C)(CO)CN3)n1 [Compound 130]', 'recombinant human NF-kappaB-inducing kinase (NIK/MAP3K14) (Homo sapiens)', 0.18),
  ('Cc1ccc(CN2CCC(O)CC2)c(Nc2nccc(-c3cc(C#N)c4c(c3)[C@@](C)(CO)CN4)n2)c1', 'recombinant human NF-kappaB-inducing kinase (NIK/MAP3K14) (Homo sapiens)', 1.51),
  ('CN1CCC(Oc2ccc(Cl)cc2Nc2nccc(-c3cc(C#N)c4c(c3)C(C)(CO)CN4)n2)CC1 (centres unmarked)', 'recombinant human NF-kappaB-inducing kinase (NIK/MAP3K14) (Homo sapiens)', 0.56),
  ('[2H]C([2H])(O)c1ccc(C)c(Nc2nccc(-c3cc(C#N)c4c(c3)[C@@](C)(CO)CN4)n2)c1', 'recombinant human NF-kappaB-inducing kinase (NIK/MAP3K14) (Homo sapiens)', -0.10),
  ('CC1(CO)CNc2c(C#N)cc(-c3ccnc(Nc4cc(C#N)ccc4Cl)n3)cc21 (centres unmarked)', 'recombinant human NF-kappaB-inducing kinase (NIK/MAP3K14) (Homo sapiens)', 0.60),
  ('COCCOc1ccc(C#N)cc1Nc1nccc(-c2cc(C#N)c3c(c2)[C@@](C)(COC(C)=O)CN3)n1', 'recombinant human NF-kappaB-inducing kinase (NIK/MAP3K14) (Homo sapiens)', 2.11),
  ('Cc1ccc(C#N)cc1Nc1nccc(-c2cc(C#N)c3c(c2)[C@@](C)(COC(=O)CC(=O)O)CN3)n1 [Compound 142a]', 'recombinant human NF-kappaB-inducing kinase (NIK/MAP3K14) (Homo sapiens)', 1.08),
  ('COc1cc(N2CCN(C(C)C)CC2)c(Cl)cc1Nc1nccc(-c2cc(C#N)c3c(c2)C(C)(C)CN3)n1', 'recombinant human NF-kappaB-inducing kinase (NIK/MAP3K14) (Homo sapiens)', 1.06),
  ('Cc1ccc(C#N)cc1Nc1nccc(-c2cc(C#N)c3c(c2)[C@@](C)(CO)CN3)n1 [Compound 132]', 'recombinant human NF-kappaB-inducing kinase (NIK/MAP3K14) (Homo sapiens)', 0.11),
  ('Cc1ccc(C#N)cc1Nc1nccc(-c2cc(C#N)c3c(c2)[C@@](C)(C(C)(C)O)CN3)n1', 'recombinant human NF-kappaB-inducing kinase (NIK/MAP3K14) (Homo sapiens)', 1.77),
  ('COc1cc(C(=O)N2CC(O)C2)c(Cl)cc1Nc1nccc(-c2cc(C#N)c3c(c2)C(C)(C)CN3)n1', 'recombinant human NF-kappaB-inducing kinase (NIK/MAP3K14) (Homo sapiens)', 0.62),
  ('Cc1ccc(C#N)cc1Nc1nccc(-c2cc(C#N)c3c(c2)[C@@](C)(CO)CN3)n1 [Compound 1]', 'recombinant human NF-kappaB-inducing kinase (NIK/MAP3K14) (Homo sapiens)', 0.26),
  ('COC(=O)c1cc(C#N)cc(Nc2nccc(-c3cc(C#N)c4c(c3)[C@@](C)(CO)CN4)n2)c1C', 'recombinant human NF-kappaB-inducing kinase (NIK/MAP3K14) (Homo sapiens)', 0.23),
  ('COc1cc(S(C)(=O)=O)c(Cl)cc1Nc1nccc(-c2cc(C#N)c3c(c2)C(C)(C)CN3)n1', 'recombinant human NF-kappaB-inducing kinase (NIK/MAP3K14) (Homo sapiens)', 1.05),
  ('CN1CC(F)C(Oc2ccc(C#N)cc2Nc2nccc(-c3cc(C#N)c4c(c3)[C@@](C)(CO)CN4)n2)C1 (some centres unmarked) [Compound 233]', 'recombinant human NF-kappaB-inducing kinase (NIK/MAP3K14) (Homo sapiens)', 0.66),
  ('Cc1ccc(C#N)cc1Nc1nccc(-c2cc(C#N)c3c(c2)[C@@](C)(CO)CN3)n1 [Compound 134]', 'recombinant human NF-kappaB-inducing kinase (NIK/MAP3K14) (Homo sapiens)', -0.05),
  ('C[C@]1(CO)CNc2c(C#N)cc(-c3ccnc(Nc4cc(C#N)ccc4OCCCN)n3)cc21', 'recombinant human NF-kappaB-inducing kinase (NIK/MAP3K14) (Homo sapiens)', 0.57),
  ('CC1(COc2ccc(C#N)cc2Nc2nccc(-c3cc(C#N)c4c(c3)[C@@](C)(CO)CN4)n2)COC1', 'recombinant human NF-kappaB-inducing kinase (NIK/MAP3K14) (Homo sapiens)', 0.74),
  ('COc1cc(OCC(=O)N(C)C)c(Cl)cc1Nc1nccc(-c2cc(C#N)c3c(c2)C(C)(C)CN3)n1', 'recombinant human NF-kappaB-inducing kinase (NIK/MAP3K14) (Homo sapiens)', 0.88),
  ('COc1cc(N2CCC(OC)CC2)c(Cl)cc1Nc1nccc(-c2cc(C#N)c3c(c2)C(C)(C)CN3)n1', 'recombinant human NF-kappaB-inducing kinase (NIK/MAP3K14) (Homo sapiens)', 2.14),
  ('C[C@]1(CO)CNc2c(C#N)cc(-c3ccnc(Nc4ccccc4C4CCCN4)n3)cc21 (single isomer, unassigned) [Compound 237]', 'recombinant human NF-kappaB-inducing kinase (NIK/MAP3K14) (Homo sapiens)', 2.33);
